// data source = PubChem BioAssay (NCI)

# System: HCC-2998 colon
# assay-summary: NCI-60 one-dose screen, 48 h
# details: 10 µM unless noted
About 83,000 compounds went through this panel and 20% of them were active in at least one assay; those are over-represented in the sample as a whole. Activity calls are given as the source filed them. How the source made its calls: active means growth percent below 10; inactive means the rest.
Select the correct class. Options are 1 (yes) for active, 0 (no) for inactive and nothing else.

{"molecule": "Cc1cc(N2CCN(CCNc3ccnc4cc(Cl)ccc34)CC2)nc(N2CCOCC2)n1", "class-name": "0 (no)"}
{"molecule": "NC(=O)C(=O)c1ccccc1NC=O", "class-name": "0 (no)"}
{"molecule": "CCCCCN1C(=O)/C(=c2\\sc3n(c2=O)C2C(NN=3)N(CC)C(=O)N2CC)c2ccccc21 (centres undefined)", "class-name": "1 (yes)"}
{"molecule": "O=C(Nc1cccc(-c2ccc(Cl)c(C(F)(F)F)c2)c1)C1CCN(Cc2cccc3cccnc23)CC1", "class-name": "1 (yes)"}
{"molecule": "C=C1C(=O)O[C@H]2[C@H]1CC/C(COC(=O)c1cc3ccccc3s1)=C\\CC[C@@]1(C)O[C@@H]21", "class-name": "1 (yes)"}

## Task Identify the outcome logged in this assay for the molecule shown: O=C(COc1ccc(-c2nc3cc(Cl)c(Cl)cc3[nH]2)cc1)N=Nc1c(O)[nH]c2ccc(Cl)cc12
## Result 0 (no)

## Task Identify the outcome logged in this assay for the molecule shown: Cc1ccc2c(c1)=C/C(=C\c1cc(-c3ccccc3)oc1O)C(=O)N=2
## Result 0 (no)

## Task Identify the outcome logged in this assay for the molecule shown: CCOc1ccc(NC(=O)CSc2oc(-c3ccccc3)nc2S(=O)(=O)c2ccc(C)cc2)cc1
## Result 0 (no)

## Task Identify the outcome logged in this assay for the molecule shown: Clc1ccc2c(c1)C(c1c[nH]c3ccccc13)(c1c[nH]c3ccccc13)CCO2
## Result 0 (no)
